Tested on: microvessel formation in rat aortic rings
Assay: rat aortic ring model of angiogenesis (inhibition of microvessel formation)
Type: cell-based
Conditions: microvessel area after eight days in culture vs vehicle-treated control rings
Protocol: Angiogenesis inhibitory activity was measured in vitro using the rat aortic ring model of angiogenesis as described by Nicosia, R. F. and Ottinetti in “Laboratory Investigation”, vol. 63, p. 115, 1990. The ability of compounds to inhibit microvessel formation was compared to vehicle-treated control rings. […]
pIC50: −log10 of the molar value.
measurement_type: pIC50

- compound: "Cc1nsc(-c2ccc(NCCCCOc3ccc(F)cc3F)nn2)n1 [Compound 22]"
  measured_on: "microvessel formation in rat aortic rings"
  pIC50: 7.14
- compound: "Cc1nsc(-c2ccc(N(C)CCCCOc3ccccc3F)nn2)n1 [Compound 41]"
  measured_on: "microvessel formation in rat aortic rings"
  pIC50: 8.59
- compound: "CCN(CCCCOc1cccc(C(F)(F)F)c1)c1ccc(-c2nc(C)ns2)nn1 [Compound 63]"
  measured_on: "microvessel formation in rat aortic rings"
  pIC50: 8.04
- compound: "Cc1nsc(-c2ccc(NCCCCSc3cccc(C(F)(F)F)c3)nn2)n1 [Compound 73]"
  measured_on: "microvessel formation in rat aortic rings"
  pIC50: 8.54
- compound: "Cc1nsc(-c2ccc(N(C)CCN(C)c3ccccc3)nn2)n1 [Compound 10]"
  measured_on: "microvessel formation in rat aortic rings"
  pIC50: 7.81

(I) Cc1nsc(-c2ccc(N(C)CCNc3cccc(C(F)(F)F)c3)nn2)n1 [Compound 112]
(II) CN(C)c1nsc(-c2ccc(NCCCCCCNc3cccc(C(F)(F)F)c3)nn2)n1 [Compound 97]
Exercise: Which value of pIC50 is numerically greater: that of I or that of II ? To answer, give the label that identifies your chosen option.
Solution: II
(II: 8.80, I: 7.88)

(I) Cc1nsc(-c2ccc(NCCCCOc3ccc(Cl)cc3)nn2)n1 [Compound 16]
(II) Cc1nsc(-c2ccc(N(C)CCN(Cc3ccccc3)c3cccc(C(F)(F)F)c3)nn2)n1 [Compound 110]
Exercise: Which value of pIC50 is numerically greater: that of I or that of II ? To answer, give the label that identifies your chosen option.
Solution: II
(II: 8.16, I: 7.80)

###

tested on: microvessel formation in rat aortic rings; test: rat aortic ring model of angiogenesis (inhibition of microvessel formation); assay type: cell-based; conditions: microvessel area after eight days in culture vs vehicle-treated control rings
measurement_type: IC50 (nM)

(1) Cc1nsc(-c2ccc(N(C)CCCCOc3ccc(F)cc3F)nn2)n1
(2) FC(F)(F)c1cccc(OCCNc2ccc(-c3ncns3)nn2)c1
(3) Cc1nsc(-c2ccc(N(C)CCOc3cccc(C(F)(F)F)c3)nn2)n1
(4) Cc1nsc(-c2ccc(NCCCCOc3ccc(Br)cc3)nn2)n1
(5) CN(C)c1nsc(-c2ccc(N(C)CCOc3cccc(C(F)(F)F)c3)nn2)n1
Exercise: Highest to lowest IC50: rank the entries shown above. Form entry: labels listed in requested order.
Solution: 4, 1, 5, 2, 3
(4: 31.2 nM, 1: 15.2 nM, 5: 7.01 nM, 2: 3.07 nM, 3: 0.83 nM)

###

system: microvessel formation in rat aortic rings; assay: rat aortic ring model of angiogenesis (inhibition of microvessel formation); assay type: cell-based; conditions: microvessel area after eight days in culture vs vehicle-treated control rings
measurement_type: IC50 (nM)

(a) Cc1nsc(-c2ccc(N(C)CCCCOc3ccc(Cl)c(Cl)c3)nn2)n1
(b) Cc1nsc(-c2ccc(N(C)CCCCOc3cc(F)cc(C(F)(F)F)c3)nn2)n1
Exercise: // select label with min value of measured IC50 from [ a , b ] To answer, give the label that identifies your chosen option.
Solution: b

(A) Cc1nsc(-c2ccc(N(C)CCCCOc3cc(C(F)(F)F)ccc3F)nn2)n1
(B) FC(F)(F)c1cccc(OCCCCNc2ccc(-c3ncns3)nn2)c1
(C) Cc1nsc(-c2ccc(NCCCCCCOc3cccc(C(F)(F)F)c3)nn2)n1
Exercise: Hey, quick one: sort these by IC50, low to high? Form entry: labels listed in requested order.
Solution: C, A, B
(C: 1.76 nM, A: 12.5 nM, B: 90.8 nM)

(P) Cc1nsc(-c2ccc(NCCCNc3cccc(C(F)(F)F)c3)nn2)n1
(Q) Cc1nsc(-c2ccc(NCCN(C)c3cccc(C(F)(F)F)c3)nn2)n1
Exercise: Which value of IC50 is numerically greater: that of P or that of Q ? To answer, give the label that identifies your chosen option.
Solution: P
(P: 45.4 nM, Q: 1.49 nM)

(a) Cc1nsc(-c2ccc(N(C)CCCCN(C)c3cccc(C(F)(F)F)c3)nn2)n1
(b) Cc1nsc(-c2ccc(NCCCCOc3cccc(C(F)(F)F)c3)nn2)n1
(c) Cc1nsc(-c2ccc(N(C)CCCCOc3ccccc3C(F)(F)F)nn2)n1
Exercise: Hey, quick one: sort these by IC50, low to high? Form entry: labels listed in requested order.
Solution: c, a, b
(c: 0.312 nM, a: 1.87 nM, b: 3.97 nM)
